measurement target: Amine oxidase [flavin-containing] B (Homo sapiens)
Sequence (P27338 whole entry): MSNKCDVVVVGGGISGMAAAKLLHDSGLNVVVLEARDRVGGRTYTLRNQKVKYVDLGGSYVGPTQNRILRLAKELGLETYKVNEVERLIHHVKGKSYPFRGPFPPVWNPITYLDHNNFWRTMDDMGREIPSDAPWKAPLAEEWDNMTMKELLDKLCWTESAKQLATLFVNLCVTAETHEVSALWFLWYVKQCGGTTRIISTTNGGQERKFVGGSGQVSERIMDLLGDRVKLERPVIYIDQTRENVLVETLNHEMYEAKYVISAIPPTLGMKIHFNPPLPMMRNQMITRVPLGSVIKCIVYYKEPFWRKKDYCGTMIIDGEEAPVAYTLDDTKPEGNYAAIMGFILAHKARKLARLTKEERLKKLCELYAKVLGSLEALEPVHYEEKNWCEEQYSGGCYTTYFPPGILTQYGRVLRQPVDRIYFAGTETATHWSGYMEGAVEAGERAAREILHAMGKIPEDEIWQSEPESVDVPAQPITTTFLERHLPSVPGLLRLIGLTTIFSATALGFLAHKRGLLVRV
assay comment: Inhibition of human recombinant MAOB expressed in BTI insect cells using p-tyramine substrate by fluorometric method
Listed next: entries and their corresponding IC50.
Just the number please, in nM, no unit attached.

Sample answers from the record:
smiles str	measurement target	assay value
COc1cc(-c2cc3cc(C)ccc3oc2=O)cc(OC)c1OC	Amine oxidase [flavin-containing] B (Homo sapiens)	161
COc1cc(OC)cc(-c2cc3cc(C)ccc3oc2=O)c1	Amine oxidase [flavin-containing] B (Homo sapiens)	8.98
Cc1ccc2oc(=O)c(-c3ccccc3)cc2c1	Amine oxidase [flavin-containing] B (Homo sapiens)	284

Below: the item to evaluate.
// IC50 (Amine oxidase [flavin-containing] B (Homo sapiens)) for COc1ccc(-c2cc3cc(C)ccc3oc2=O)cc1 = 13.1

* * *

// reported Ratio IC50 per item
Organism: Homo sapiens
assay comment: Selectivity index, ratio of IC50 for human recombinant MAOA to IC50 for human recombinant MAOB

# count of solved cases: 3
smiles str	assay value
COc1cc(-c2cc3cc(C)ccc3oc2=O)cc(OC)c1OC	> 623
COc1cc(OC)cc(-c2cc3cc(C)ccc3oc2=O)c1	> 11100
COc1ccc(-c2cc3cc(C)ccc3oc2=O)cc1	> 7660

Measured Ratio IC50 of Cc1ccc2oc(=O)c(-c3ccccc3)cc2c1 : > 352

Just for reference, ChEMBL document CHEMBL1781945 is where these values come from.
